Conditions: 5% to 12% relative humidity, dark, air, 2 d; measured 11.7% (Form A 5.8%), 23° C.
Give HPLC-purity (10.5 min) for every item shown.
Answers are plain numbers, in %.

Reference set, count: 3
# Compound, Unit Abbreviation, HPLC-purity (10.5 min)
records = [
    ("Nc1nc(O)c2c(CCc3ccc(C(=O)N[C@@H](CCC(=O)O)C(=O)O)cc3)c[nH]c2n1 [Form IV]", "%", 99.66),
    ("Nc1nc(O)c2c(CCc3ccc(C(=O)N[C@@H](CCC(=O)O)C(=O)O)cc3)c[nH]c2n1 [Heptahydrate]", "%", 99.70),
    ("Nc1nc(O)c2c(CCc3ccc(C(=O)N[C@@H](CCC(=O)O)C(=O)O)cc3)c[nH]c2n1 [2.5 hydrate]", "%", 99.74),
]

Now consider the entry below.
// sample Nc1nc(O)c2c(CCc3ccc(C(=O)N[C@@H](CCC(=O)O)C(=O)O)cc3)c[nH]c2n1 [Form A] , its HPLC-purity (10.5 min) was 99.59
